The entries below are paired with their reported TGI.
Test system: NCI-H522 lung
protocol.notes: NCI tumour cell line growth inhibition, 48 h

>  <compound>
COC1=NN2C(OC)(c3ccccc3)c3c(-c4ccccc4)sc(-c4ccccc4)c3C2(c2ccccc2)S1 (stereo not drawn)

>  <assay.system>
NCI-H522 lung

>  <TGI>
> 100 µM

$$$$
>  <compound>
CCOC(=O)CNC(SC)=C(C#N)C#N

>  <assay.system>
NCI-H522 lung

>  <TGI>
> 100 µM

$$$$
>  <compound>
COC(=O)C[C@H](COCc1ccccc1)NC(=O)C[C@H](COCc1ccccc1)NC(=O)C[C@H](COCc1ccccc1)NC(=O)OC(C)(C)C

>  <assay.system>
NCI-H522 lung

>  <TGI>
> 100 µM

$$$$
>  <compound>
O=C1C[C@H](c2ccccc2)C2(C(=O)c3ccccc3C2=O)[C@@H](c2ccccc2)C1

>  <assay.system>
NCI-H522 lung

>  <TGI>
> 100 µM

$$$$
>  <compound>
CC(=O)OCC1OC(OCC2OC(N3C(=S)N[C@H]([C@@H](O)[C@H](O)[C@H](O)CO)[C@H]3O)C(OC(C)=O)C(OC(C)=O)C2OC(C)=O)C(OC(C)=O)C(OC(C)=O)C1OC(C)=O (stereo partly drawn)

>  <assay.system>
NCI-H522 lung

>  <TGI>
> 100 µM

$$$$
>  <compound>
C/C=C/C=C/C1=NN(c2cccc(S(=O)(=O)O)c2)C2(C1)SCC(=O)N2c1nc2ccccc2s1 (stereo not drawn)

>  <assay.system>
NCI-H522 lung

>  <TGI>
> 100 µM

$$$$
>  <compound>
CC(O)(c1ccccc1)c1nccc2ccccc12 (stereo not drawn)

>  <assay.system>
NCI-H522 lung

>  <TGI>
> 100 µM

$$$$
>  <compound>
Cn1c(=O)c(C(c2ccccc2)c2c(O)c3ccccc3n(C)c2=O)c(O)c2ccccc21

>  <assay.system>
NCI-H522 lung

>  <TGI>
> 100 µM

$$$$
>  <compound>
O=C1C2Cc3ccccc3CN2C(=O)N1CN1CCN(CN2C(=O)C3Cc4ccccc4CN3C2=O)CC1 (stereo not drawn)

>  <assay.system>
NCI-H522 lung

>  <TGI>
> 100 µM

$$$$
>  <compound>
CC1(C)CCc2cc3c(cc2O1)OC(C)(C)C1c2c(ccc4c2CCC(C)(C)O4)OC31 (stereo not drawn)

>  <assay.system>
NCI-H522 lung

>  <TGI>
> 100 µM

$$$$
>  <compound>
O=C(c1ccc(Cl)cc1)N(C(=S)N1CCN(c2ccccn2)CC1)c1ccccc1

>  <assay.system>
NCI-H522 lung

>  <TGI>
> 100 µM

$$$$
>  <compound>
Cc1ccc(O)c(Cc2nc3ccccc3nc2-c2cccc(Br)c2)c1

>  <assay.system>
NCI-H522 lung

>  <TGI>
> 100 µM

$$$$
>  <compound>
Cc1ccccc1NC(=S)N=Nc1c(O)[nH]c2ccccc12

>  <assay.system>
NCI-H522 lung

>  <TGI>
> 100 µM

$$$$
>  <compound>
O=C(CCc1cc(O)cc(O)c1)NCCc1ccc(O)c(O)c1

>  <assay.system>
NCI-H522 lung

>  <TGI>
> 100 µM

$$$$
>  <compound>
CC(NC(=O)C(C)C(=O)NCc1ccc(C(F)(F)F)cc1)C(N)=O (stereo not drawn)

>  <assay.system>
NCI-H522 lung

>  <TGI>
> 100 µM

$$$$
>  <compound>
NC(=O)Nc1ccc2ncnc(Nc3ccc(Cl)cc3)c2c1

>  <assay.system>
NCI-H522 lung

>  <TGI>
36 µM

$$$$
>  <compound>
CCCCCC(/C=C/[C@@H]1CC(=O)C[C@H]1O[Si](C)(C)C(C)(C)C)OCOCCOC (stereo partly drawn)

>  <assay.system>
NCI-H522 lung

>  <TGI>
4.01 µM

$$$$
>  <compound>
CC(C)(C)c1ccc(C(=O)N/N=C/c2ccc(O)cc2O)cc1

>  <assay.system>
NCI-H522 lung

>  <TGI>
14 µM

$$$$
>  <compound>
Cn1c2ccccc2c2cc(-c3ccccc3)c3c(c21)C(=O)C=CC3=O

>  <assay.system>
NCI-H522 lung

>  <TGI>
34.5 µM

$$$$
>  <compound>
CC1CCC2c3c([nH]c4ccccc34)C3C(=O)N(C4CCCCC4)C(=O)C3C2C1 (stereo not drawn)

>  <assay.system>
NCI-H522 lung

>  <TGI>
> 100 µM

$$$$
>  <compound>
NNC(=O)CC(=O)Nc1ccccc1F

>  <assay.system>
NCI-H522 lung

>  <TGI>
> 100 µM

$$$$
>  <compound>
CCN(CC)C(=O)c1c(N2CCOCC2)cc(N(CC)CC)oc1=O

>  <assay.system>
NCI-H522 lung

>  <TGI>
> 100 µM

$$$$
>  <compound>
Cn1cc2ccccc2c1-c1nc(F)nc(Oc2ccc3c(c2)CC[C@@H]2C3CC[C@]3(C)C(O)CCC23)n1 (stereo partly drawn)

>  <assay.system>
NCI-H522 lung

>  <TGI>
26 µM

$$$$

Reference source for all entries: PubChem BioAssay (NCI)
